- method-description: Thermal stability measurement (TG/DTA weight reduction temperature)
- condition-parameters: TG/DTA, air 200 mL/min, 10° C./min, 30° C. to 600° C.
measured-metric: Weight reduction temperature 5% (°C)
Express it in °C; write the number only.

Sample records with Weight reduction temperature 5%:
>  <compound>
CCCCCCCCCCCCCCCCCCn1cc[n+](CCCCCCCCC[n+]2ccn(CCCCCCCCCCCCCCCCCC)c2)c1.O=S(=O)([N-]S(=O)(=O)C(F)(F)C(F)(F)C(F)(F)C(F)(F)F)C(F)(F)C(F)(F)C(F)(F)C(F)(F)F.O=S(=O)([N-]S(=O)(=O)C(F)(F)C(F)(F)C(F)(F)C(F)(F)F)C(F)(F)C(F)(F)C(F)(F)C(F)(F)F [Comp. Ex. 10A, reference compound]

>  <Weight reduction temperature 5% [°C]>
355.1

$$$$
>  <compound>
CCCCCCCCCCCCCCCCCCN1CCCC1.O=S1(=O)NS(=O)(=O)C(F)(F)C(F)(F)C1(F)F [Comp. Ex. 6A, reference compound]

>  <Weight reduction temperature 5% [°C]>
336.4

$$$$

Next compound, Weight reduction temperature 5% to be filled in.
Look at this compound and give its reported Weight reduction temperature 5%. CCCCCCCCCCCCCCCCCCN1CCCN2CCCN=C12.O=S1(=O)NS(=O)(=O)C(F)(F)C(F)(F)C1(F)F [Comp. Ex. 4A, reference compound]
288.4
